tested on: RAW-Dual (murine macrophage reporter line); assay: viability score (confluency relative to resting cells, overnight) (fraction); higher = more viable, active = viable (0.7 or more); settings: modulator concentration 10 µM
API: response.call in label 1 = active, label 0 = inactive

Write down the call the test reported for this compound. Item: CCN(CC)CCNC(=O)C(O)(c1ccccc1)c1ccccc1
label 1

Thanks! And COc1ccc(N2C(=O)C(=Cc3ccc(OCc4ccc(F)cc4)c(OC)c3)C(=O)NC2=S)cc1 ?
label 1

Follow-up entry: COc1cc2c(c(OC)c1OC)-c1ccc(OC)c(=O)cc1[C@@H](NC(C)=O)CC2
label 0

Next compound up: O=C1NC(=O)N(c2ccccc2F)C(=O)C1=Cc1cc(Cl)ccc1OCc1ccc([N+](=O)[O-])cc1
label 1

For CN1C2CCC1CC(OC(=O)[C@H](CO)c1ccccc1)C2 (some centres not stated) then?
label 1

Now the same for COc1cc(C2c3cc4c(c(O)c3CC3COC(=O)C32)OCO4)cc(OC)c1OC (configuration not stated)
label 1

Same lookup for Cc1noc(C)c1CC(=O)N1CCCSCC1CN1CCCC1 (configuration not stated) , please.
label 1

Cool, now C=C(C)C1Cc2c(ccc3c2OC2COc4cc(OC)c(OC)cc4C2C3=O)O1 (configuration not stated)
label 1

Subsequent entry: COc1cc(CNCCc2c[nH]c3ccccc23)cc(OC)c1O
label 1

Please do the same for O=C(O)CC[N+](=O)[O-] as well.
label 1

Now consider COc1ccc(-n2c(C)nc3ccc(NC(=O)CC4CCCC4)cc3c2=O)cc1 and answer again.
label 1

Also need O=C(NCCN1CCOCC1)c1ccc(Cl)nc1 , thanks.
label 1

Subsequent entry: CC[N+]1(C)CCCC(OC(=O)C(O)(c2ccccc2)c2ccccc2)C1 (configuration not stated)
label 1

Same lookup for Cc1ccccc1N1C(=O)C(=Cc2ccc(-c3ccc(C(=O)O)c(Cl)c3)o2)C(=O)NC1=S , please.
label 1

How about COc1ccc(CNCCc2c[nH]c3ccccc23)c(OC)c1C ?
label 0

Again, but for C#CCOc1ccc(C=C2C(=O)NC(=O)N(c3cc(OC)c(Cl)cc3OC)C2=O)cc1Cl
label 1

Try this compound next: CN(C)CCC(=O)c1ccccc1
label 0

Let us now turn to CCC1(c2ccccc2)C(=O)N(Cc2ccccc2)C(=O)N(Cc2ccccc2)C1=O
label 1

Now the compound N=C(N)NOCCC(N)C(=O)O (configuration not stated)
label 1

Next entry: CC(=O)Nc1ccc(C(=O)NCC#CCN(C)C)cc1
label 1

Same question for COCCN1C(=O)CN(C2CCN(CC(=O)N3CC(C)OC(C)C3)CC2)C1=O (configuration not stated) please.
label 1

Same lookup for Cc1cc(OC(=O)C2CCCCC2)c2c3c(c(=O)oc2c1)CCC3 , please.
label 1
